All figures here come from ChEMBL document CHEMBL1145199.

test system: Human immunodeficiency virus 1; test: Inhibitory concentration against 100I mutant was determined; assay type: functional, organism-based; settings: Human immunodeficiency virus 1; read-out: IC50
pIC50: −log10 of the molar value.

SMILES REPRESENTATION	TARGET ENTITY	pIC50
Cc1cc(C)c(Oc2nc(Nc3ccc(C#N)cc3)c(=O)n(C)c2C)c(C)c1	Human immunodeficiency virus 1	< 7.30
Cc1ccccc1Sc1nc(Nc2ccc(C#N)cc2)c(=O)n(C)c1C	Human immunodeficiency virus 1	< 5.00
Cc1ccc(Sc2cn(C)c(=O)c(Nc3ccc(C#N)cc3)n2)c(C)c1	Human immunodeficiency virus 1	< 5.00
Cc1ccccc1Sc1cn(C)c(=O)c(Nc2ccc(C#N)cc2)n1	Human immunodeficiency virus 1	< 5.00

###

// reported IC50 per item
system: Human immunodeficiency virus 1; assay: Inhibitory concentration against 100I mutant was determined; type: functional, organism-based; conditions: Human immunodeficiency virus 1; read-out: IC50
OUTCOME MEASURE: IC50

SMILES REPRESENTATION	TEST VALUE
Cc1cc(C)c(Sc2cn(C)c(=O)c(Nc3ccc(C#N)cc3)n2)c(C)c1	> 10 µM
Cc1cc(C)c(Sc2cn(C)c(=O)c(Nc3ccc(Cl)cc3)n2)c(C)c1	> 10 µM
Cc1cc(C)c(S(=O)(=O)c2cn(C)c(=O)c(Nc3ccc(C#N)cc3)n2)c(C)c1	> 10 µM

###

system: Human immunodeficiency virus 1; assay: Inhibitory concentration against 181C mutant was determined; assay type: functional, organism-based; details: Human immunodeficiency virus 1; read-out: IC50
OUTCOME MEASURE: IC50

SMILES REPRESENTATION	OUTCOME MEASURE	TEST VALUE
Cc1cc(C)c(Oc2nc(Nc3ccc(C#N)cc3)c(=O)n(C)c2C)c(C)c1	IC50	> 0.501 µM
Cc1ccc(Sc2cn(C)c(=O)c(Nc3ccc(C#N)cc3)n2)c(C)c1	IC50	> 10 µM
Cc1ccccc1Sc1cn(C)c(=O)c(Nc2ccc(C#N)cc2)n1	IC50	> 10 µM
Cc1ccccc1Oc1nc(Nc2ccc(Cl)cc2)c(=O)n(C)c1C	IC50	> 10 µM
